Could you please report measured IC50 at 24 h for the items listed next?
Protocol details: Cytotoxicity against human HepG2 cells assessed as reduction in cell viability incubated for 24 hrs in DMEM/10% FBS supplemented with galactose by CellTiter-Glo luminescent assay
Format: toxicity, cell-based

Prompt line: Return reported IC50 at 24 h. Input molecule: O=C(C1CCN(c2nnc(-c3ccccc3)o2)CC1)N1CCCC(Cc2ccccc2)C1 (configuration not stated)
Response line: 37.5 µM

Prompt line: Return reported IC50 at 24 h. Input molecule: O=C(C1CCN(c2nnc(-c3ccc(C(F)(F)F)cc3)o2)CC1)N1CCC(Cc2ccccc2)CC1
Response line: > 50 µM

Prompt line: Return reported IC50 at 24 h. Input molecule: O=C(C1CCN(c2nnc(-c3ccccc3)o2)CC1)N1CCC(Oc2ccccc2)CC1
Response line: 37.5 µM

Prompt line: Return reported IC50 at 24 h. Input molecule: O=C(NCc1ccccc1)C1CCN(c2nnc(-c3ccccc3)o2)CC1
Response line: > 50 µM

Prompt line: Return reported IC50 at 24 h. Input molecule: CC(c1ccccc1)C1CCN(C(=O)C2CCN(c3nnc(-c4ccccc4)o3)CC2)CC1 (configuration not stated)
Response line: > 50 µM

Prompt line: Return reported IC50 at 24 h. Input molecule: O=S(=O)(C1CCN(c2nnc(-c3ccccc3)o2)CC1)N1CCC(Cc2ccccc2)CC1
Response line: 37.5 µM

Prompt line: Return reported IC50 at 24 h. Input molecule: CC(C)(C)C1CCN(C(=O)C2CCN(c3nnc(-c4ccccc4)o3)CC2)CC1
Response line: > 50 µM

Prompt line: Return reported IC50 at 24 h. Input molecule: Cc1nnc(N2CCC(C(=O)N3CCC(Cc4ccccc4)CC3)CC2)o1
Response line: > 50 µM

Prompt line: Return reported IC50 at 24 h. Input molecule: CC(C)C1CCN(C(=O)C2CCN(c3nnc(-c4ccccc4)o3)CC2)CC1
Response line: > 50 µM

Prompt line: Return reported IC50 at 24 h. Input molecule: O=C(C1CCN(c2nnc(-c3ccccc3)o2)CC1)N1CCC(Cc2ccc(C(F)(F)F)cc2)CC1
Response line: 37.5 µM

Prompt line: Return reported IC50 at 24 h. Input molecule: CCN(CC)C(=O)C1CCN(c2nnc(-c3ccccc3)o2)CC1
Response line: > 50 µM

Prompt line: Return reported IC50 at 24 h. Input molecule: O=C(C1CCN(c2nnc(-c3ccccc3)o2)CC1)N1CCC(C(F)(F)F)CC1
Response line: > 50 µM

Measured values drawn from ChEMBL document CHEMBL5370592 for this set.
